# Tested on: 873145-292-R-J1-PDC complex spheroid viability
# Protocol description: Anticancer human tumor 873145-292-R-J1-PDC patient-derived renal clear cell carcinoma cell line growth inhibition [POLQ]
# Measurement parameters: curve of first compound; second compound 3.16 µM
Let's look at some compounds and their measured IC50.

Use the examples below as a reference point.
Compound	IC50
CC[C@@]1(O)C(=O)OCc2c1cc1n(c2=O)Cc2cc3c(CN(C)C)c(O)ccc3nc2-1 + Cc1cccc(N(C)C(=O)C2C(O)CCN2c2nc(C)cc(C(F)(F)F)c2C#N)c1	> 100 nM
COc1cccc(OCCCN)c1-c1cc(Nc2cnc(C#N)cn2)n[nH]1 + Cc1cccc(N(C)C(=O)C2C(O)CCN2c2nc(C)cc(C(F)(F)F)c2C#N)c1	> 1000 nM
CC1COCCN1c1cc(C2(O)CC3CCC(C2)O3)c2cnn(-c3ccn[nH]3)c2n1 (stereo not given) + COC1C(OC(N)=O)C(O)C(Oc2ccc3c(O)c(NC(=O)c4ccc(O)c(CC=C(C)C)c4)c(=O)oc3c2C)OC1(C)C	362 nM
CCCS(=O)(=O)Nc1ccc(F)c(C(=O)c2c[nH]c3ncc(-c4ccc(Cl)cc4)cc23)c1F + Nc1ccc(C#CCN(C(=O)Cc2ncc(C(F)(F)F)cc2C(F)(F)F)c2ccc(F)cc2)nn1	> 10000 nM

[in] Look up IC50 for this compound: CNCc1ccc(-c2[nH]c3cc(F)cc4c3c2CCNC4=O)cc1 + Nc1ccc(C#CCN(C(=O)Cc2ncc(C(F)(F)F)cc2C(F)(F)F)c2ccc(F)cc2)nn1
[out] > 10000 nM

----------
Let's look at some compounds and their measured viability, T/C.
# Test system: 873145-292-R-J1-PDC complex spheroid viability
# Protocol description: Anticancer human tumor 873145-292-R-J1-PDC cell line growth inhibition [POLQ];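 further: spheroids exposed to compounds for 7 days before viability readout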;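 on viability, T/C: luminescence signal used as surrogate for viable cell content; 100% = DMSO vehicle control viability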
# Measurement parameters: second compound 0.0316 µM; first compound 0.1 µM; stronger effect = lower value
Numbers only; they are read as %.

Use the examples below as a reference point.
Compound	viability, T/C (%)
CCCS(=O)(=O)Nc1ccc(F)c(C(=O)c2c[nH]c3ncc(-c4ccc(Cl)cc4)cc23)c1F + COC1C(OC(N)=O)C(O)C(Oc2ccc3c(O)c(NC(=O)c4ccc(O)c(CC=C(C)C)c4)c(=O)oc3c2C)OC1(C)C	98.8
O=c1[nH]cc(F)c(=O)[nH]1 + COC1C(OC(N)=O)C(O)C(Oc2ccc3c(O)c(NC(=O)c4ccc(O)c(CC=C(C)C)c4)c(=O)oc3c2C)OC1(C)C	92.8
CCCS(=O)(=O)Nc1ccc(F)c(C(=O)c2c[nH]c3ncc(-c4ccc(Cl)cc4)cc23)c1F + Nc1ccc(C#CCN(C(=O)Cc2ncc(C(F)(F)F)cc2C(F)(F)F)c2ccc(F)cc2)nn1	106
CCc1c2c(nc3ccc(O)cc13)-c1cc3c(c(=O)n1C2)COC(=O)[C@]3(O)CC + Nc1ccc(C#CCN(C(=O)Cc2ncc(C(F)(F)F)cc2C(F)(F)F)c2ccc(F)cc2)nn1	59.2
CC(C)n1c(=O)n(C)c2cnc3cc(F)c(-c4ccc(OCCCN5CCCCC5)nc4)cc3c21 + COC1C(OC(N)=O)C(O)C(Oc2ccc3c(O)c(NC(=O)c4ccc(O)c(CC=C(C)C)c4)c(=O)oc3c2C)OC1(C)C	93
COc1ccc([C@@H](O)c2cc(-c3ncnc4cc(N5CCOCC5)ccc34)c(F)cc2Cl)nn1 + Nc1ccc(C#CCN(C(=O)Cc2ncc(C(F)(F)F)cc2C(F)(F)F)c2ccc(F)cc2)nn1	91.9
C=CCn1c(=O)c2cnc(Nc3ccc(N4CCN(C)CC4)cc3)nc2n1-c1cccc(C(C)(C)O)n1 + Nc1ccc(C#CCN(C(=O)Cc2ncc(C(F)(F)F)cc2C(F)(F)F)c2ccc(F)cc2)nn1	86.6
O=C(c1cc(Cc2n[nH]c(=O)c3ccccc23)ccc1F)N1CCN(C(=O)C2CC2)CC1 + COC1C(OC(N)=O)C(O)C(Oc2ccc3c(O)c(NC(=O)c4ccc(O)c(CC=C(C)C)c4)c(=O)oc3c2C)OC1(C)C	94.8
COc1ccc([C@@H](O)c2cc(-c3ncnc4cc(N5CCOCC5)ccc34)c(F)cc2Cl)nn1 + Cc1cccc(N(C)C(=O)C2C(O)CCN2c2nc(C)cc(C(F)(F)F)c2C#N)c1	92.1
Nc1ccn(C2OC(CO)C(O)C2(F)F)c(=O)n1 (stereo not given) + COC1C(OC(N)=O)C(O)C(Oc2ccc3c(O)c(NC(=O)c4ccc(O)c(CC=C(C)C)c4)c(=O)oc3c2C)OC1(C)C	46.6

[in] What viability, T/C appears in the records for this compound with 873145-292-R-J1-PDC complex spheroid viability? CC[C@@]1(O)C(=O)OCc2c1cc1n(c2=O)Cc2cc3c(CN(C)C)c(O)ccc3nc2-1 + COC1C(OC(N)=O)C(O)C(Oc2ccc3c(O)c(NC(=O)c4ccc(O)c(CC=C(C)C)c4)c(=O)oc3c2C)OC1(C)C
[out] 47.6

[in] What viability, T/C appears in the records for this compound with 873145-292-R-J1-PDC complex spheroid viability? CCc1cc2c(N3CCc4c(cc(Cn5ccnc5)cc4-c4cn(C)nc4C(F)(F)F)C3=O)ccnc2c(OC)n1 + COC1C(OC(N)=O)C(O)C(Oc2ccc3c(O)c(NC(=O)c4ccc(O)c(CC=C(C)C)c4)c(=O)oc3c2C)OC1(C)C
[out] 96.5

----------
Let's look at some compounds and their measured viability, T/C.
# Test system: 873145-292-R-J1-PDC complex spheroid viability
# Protocol description: Anticancer human tumor 873145-292-R-J1-PDC cell line growth inhibition [POLQ];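 further: spheroids exposed to compounds for 7 days before viability readout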;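 on viability, T/C: luminescence signal used as surrogate for viable cell content; 100% = DMSO vehicle control viability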
# Measurement parameters: second compound 0.0316 µM; first compound 0.01 µM; stronger effect = lower value
Numbers only; they are read as %.

Use the examples below as a reference point.
Compound	Assay value
CC[C@@]1(O)C(=O)OCc2c1cc1n(c2=O)Cc2cc3c(CN(C)C)c(O)ccc3nc2-1 + Cc1cccc(N(C)C(=O)C2C(O)CCN2c2nc(C)cc(C(F)(F)F)c2C#N)c1	104
COc1cccc(OCCCN)c1-c1cc(Nc2cnc(C#N)cn2)n[nH]1 + Nc1ccc(C#CCN(C(=O)Cc2ncc(C(F)(F)F)cc2C(F)(F)F)c2ccc(F)cc2)nn1	94.2
CC[C@@]1(O)C(=O)OCc2c1cc1n(c2=O)Cc2cc3c(CN(C)C)c(O)ccc3nc2-1 + Nc1ccc(C#CCN(C(=O)Cc2ncc(C(F)(F)F)cc2C(F)(F)F)c2ccc(F)cc2)nn1	92
CCc1c2c(nc3ccc(O)cc13)-c1cc3c(c(=O)n1C2)COC(=O)[C@]3(O)CC + COC1C(OC(N)=O)C(O)C(Oc2ccc3c(O)c(NC(=O)c4ccc(O)c(CC=C(C)C)c4)c(=O)oc3c2C)OC1(C)C	86.7

Kindly consider the entry below.
[in] Look up viability, T/C for this compound: Cn1ncnc1[C@H]1c2n[nH]c(=O)c3cc(F)cc(c23)N[C@@H]1c1ccc(F)cc1 + Cc1cccc(N(C)C(=O)C2C(O)CCN2c2nc(C)cc(C(F)(F)F)c2C#N)c1
[out] 97.5

----------
# Tested on: 873145-292-R-J1-PDC complex spheroid viability
# Protocol description: Anticancer human tumor 873145-292-R-J1-PDC cell line growth inhibition [POLQ];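 further: spheroids exposed to compounds for 7 days before viability readout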;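 on viability, T/C: luminescence signal used as surrogate for viable cell content; 100% = DMSO vehicle control viability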
# Measurement parameters: second compound 0.0316 µM; first compound 0.01 µM; stronger effect = lower value
Quantity kind: viability, T/C (%)
Numbers only; they are read as %.

Use the examples below as a reference point.
Compound	viability, T/C (%)
CC[C@@]1(O)C(=O)OCc2c1cc1n(c2=O)Cc2cc3c(CN(C)C)c(O)ccc3nc2-1 + COC1C(OC(N)=O)C(O)C(Oc2ccc3c(O)c(NC(=O)c4ccc(O)c(CC=C(C)C)c4)c(=O)oc3c2C)OC1(C)C	90
COc1cccc(OCCCN)c1-c1cc(Nc2cnc(C#N)cn2)n[nH]1 + COC1C(OC(N)=O)C(O)C(Oc2ccc3c(O)c(NC(=O)c4ccc(O)c(CC=C(C)C)c4)c(=O)oc3c2C)OC1(C)C	82.4
C=CCn1c(=O)c2cnc(Nc3ccc(N4CCN(C)CC4)cc3)nc2n1-c1cccc(C(C)(C)O)n1 + Cc1cccc(N(C)C(=O)C2C(O)CCN2c2nc(C)cc(C(F)(F)F)c2C#N)c1	104
Cn1ncnc1[C@H]1c2n[nH]c(=O)c3cc(F)cc(c23)N[C@@H]1c1ccc(F)cc1 + COC1C(OC(N)=O)C(O)C(Oc2ccc3c(O)c(NC(=O)c4ccc(O)c(CC=C(C)C)c4)c(=O)oc3c2C)OC1(C)C	94.8

Kindly consider the entry below.
[in] Look up viability, T/C for this compound: C=CCn1c(=O)c2cnc(Nc3ccc(N4CCN(C)CC4)cc3)nc2n1-c1cccc(C(C)(C)O)n1 + Nc1ccc(C#CCN(C(=O)Cc2ncc(C(F)(F)F)cc2C(F)(F)F)c2ccc(F)cc2)nn1
[out] 110

----------
# Test system: 873145-292-R-J1-PDC complex spheroid viability
# Protocol description: Anticancer human tumor 873145-292-R-J1-PDC cell line growth inhibition [POLQ];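 further: spheroids exposed to compounds for 7 days before viability readout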
# Measurement parameters: curve of first compound; second compound 10 µM
pIC50: −log10 of the molar value.
Quantity kind: pIC50

Use the examples below as a reference point.
Compound	pIC50
CNCc1ccc(-c2[nH]c3cc(F)cc4c3c2CCNC4=O)cc1 + Cc1cccc(N(C)C(=O)C2C(O)CCN2c2nc(C)cc(C(F)(F)F)c2C#N)c1	< 5.00
COc1ccc([C@@H](O)c2cc(-c3ncnc4cc(N5CCOCC5)ccc34)c(F)cc2Cl)nn1 + Cc1cccc(N(C)C(=O)C2C(O)CCN2c2nc(C)cc(C(F)(F)F)c2C#N)c1	5.23

Kindly consider the entry below.
[in] Look up pIC50 for this compound: CC1COCCN1c1cc(C2(S(C)(=N)=O)CC2)nc(-c2ccnc3[nH]ccc23)n1 (stereo not drawn) + Cc1cccc(N(C)C(=O)C2C(O)CCN2c2nc(C)cc(C(F)(F)F)c2C#N)c1
[out] < 5.00
